Assay: Volume of distribution at steady state in male mouse at 2 mg/kg, iv
Format: ADME, organism-based
Details: in vivo, read-out: Vdss
measured metric: Vd
Provide the measurement as a number trailed by its unit.

Just so you know, measured Vd for Cl.Cl.O=C(NCc1ccc(OCC(O)CN2CCN(c3noc4cc(F)ccc34)CC2)cc1)N(Cc1ccc(F)cc1)C1CCNCC1 (stereo unspecified) came out at 83.9 L/kg

----------
Test: Drug concentration in male ICR mouse brain at 10 mg/kg, ip measured after 3 hr
Format: ADME, organism-based
Details: read-out: Ct
measured metric: concentration at 3 h

Lab book: concentration at 3 h of Cl.Cl.O=C(NCc1ccc(OCC(O)CN2CCN(c3noc4cc(F)ccc34)CC2)cc1)N(Cc1ccc(F)cc1)C1CCNCC1 (stereo unspecified) noted as < 0.5 ng/g

----------
Test: Drug concentration in male ICR mouse plasma at 10 mg/kg, ip measured after 3 hr
Format: ADME, organism-based
measured metric: concentration at 3 h (µg/mL)
Value expressed in µg/mL; do not type the unit.

Noted for Cl.Cl.O=C(NCc1ccc(OCC(O)CN2CCN(c3noc4cc(F)ccc34)CC2)cc1)N(Cc1ccc(F)cc1)C1CCNCC1 (stereo unspecified) : its concentration at 3 h reads 0.271

----------
// values below are pIC50; system is 5-hydroxytryptamine receptor 2A (Homo sapiens, UniProt P28223)
Sequence (P28223 whole entry): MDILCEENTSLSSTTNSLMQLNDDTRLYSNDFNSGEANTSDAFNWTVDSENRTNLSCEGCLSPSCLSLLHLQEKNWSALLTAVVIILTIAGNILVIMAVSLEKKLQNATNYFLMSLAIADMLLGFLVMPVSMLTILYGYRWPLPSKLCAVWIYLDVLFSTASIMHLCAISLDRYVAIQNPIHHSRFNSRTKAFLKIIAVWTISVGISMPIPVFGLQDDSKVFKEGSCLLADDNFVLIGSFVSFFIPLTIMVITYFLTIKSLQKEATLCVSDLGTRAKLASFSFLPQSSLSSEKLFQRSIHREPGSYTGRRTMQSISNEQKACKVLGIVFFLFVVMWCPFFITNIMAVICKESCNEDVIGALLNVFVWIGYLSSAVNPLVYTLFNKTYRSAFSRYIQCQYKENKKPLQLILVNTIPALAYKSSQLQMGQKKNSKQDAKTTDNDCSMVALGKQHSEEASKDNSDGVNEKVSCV
Scale for pIC50: -log10 of concentration given in mol/L; no unit attached.

Item O=C(NCc1ccc(OCC(O)CN2CCN(c3noc4cc(F)ccc34)CC2)cc1)N(Cc1ccc(F)cc1F)C1CCNCC1 (centres undefined) was tested on 5-hydroxytryptamine receptor 2A (Homo sapiens, UniProt P28223); the reported pIC50 is 7.33

Observed pIC50 on 5-hydroxytryptamine receptor 2A (Homo sapiens, UniProt P28223), entry O=C(NCc1ccc(OCC(O)CN2CCC(C3c4ccc(Cl)cc4CCc4cccnc43)CC2)cc1)N(Cc1ccc(F)cc1)C1CCNCC1 (centres undefined) , equals 6.09

Field pIC50 (5-hydroxytryptamine receptor 2A (Homo sapiens, UniProt P28223)), entry O=C(c1ccc(F)cc1)C1CCN(CC(O)COc2ccc(CNC(=O)N(Cc3ccc(F)cc3)C3CCNCC3)cc2)CC1 (centres undefined) : 6.18

Record O=C(NCc1ccc(OCC(O)CN2CCN(c3noc4cc(F)ccc34)CC2)cc1)N(Cc1cc(F)c(F)cc1F)C1CCNCC1 (centres undefined) ; system 5-hydroxytryptamine receptor 2A (Homo sapiens, UniProt P28223); pIC50 = 7.30

----------
Molecular target: CYP2C19 (Homo sapiens, UniProt P33261)
Sequence (P33261 whole entry): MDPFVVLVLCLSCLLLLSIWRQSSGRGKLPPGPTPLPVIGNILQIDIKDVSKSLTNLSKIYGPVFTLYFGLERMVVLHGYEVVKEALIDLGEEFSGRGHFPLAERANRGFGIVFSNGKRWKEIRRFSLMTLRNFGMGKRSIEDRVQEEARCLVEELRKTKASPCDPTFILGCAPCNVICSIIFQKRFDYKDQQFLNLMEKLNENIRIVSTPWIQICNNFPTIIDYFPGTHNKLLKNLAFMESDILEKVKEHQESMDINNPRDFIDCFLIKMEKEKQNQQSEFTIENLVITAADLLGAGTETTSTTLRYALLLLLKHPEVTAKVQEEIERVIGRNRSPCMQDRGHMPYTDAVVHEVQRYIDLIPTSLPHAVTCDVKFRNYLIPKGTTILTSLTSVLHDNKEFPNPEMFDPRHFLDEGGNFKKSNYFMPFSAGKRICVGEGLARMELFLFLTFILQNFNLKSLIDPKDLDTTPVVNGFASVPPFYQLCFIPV
Assay: Inhibition of CYP2C19 (unknown origin) at 10 uM relative to control
Format: ADME
measured metric: inhibition at 10 µM
Show the value, then the unit it is measured in.

Kindly note the recorded inhibition at 10 µM for Cl.Cl.O=C(NCc1ccc(OCC(O)CN2CCN(c3noc4cc(F)ccc34)CC2)cc1)N(Cc1ccc(F)cc1)C1CCNCC1 (stereo unspecified) , which is 21%

----------
List of inhibition at 10 µM values.
Biological target: UniProt Q12809
Sequence (Q12809 whole entry): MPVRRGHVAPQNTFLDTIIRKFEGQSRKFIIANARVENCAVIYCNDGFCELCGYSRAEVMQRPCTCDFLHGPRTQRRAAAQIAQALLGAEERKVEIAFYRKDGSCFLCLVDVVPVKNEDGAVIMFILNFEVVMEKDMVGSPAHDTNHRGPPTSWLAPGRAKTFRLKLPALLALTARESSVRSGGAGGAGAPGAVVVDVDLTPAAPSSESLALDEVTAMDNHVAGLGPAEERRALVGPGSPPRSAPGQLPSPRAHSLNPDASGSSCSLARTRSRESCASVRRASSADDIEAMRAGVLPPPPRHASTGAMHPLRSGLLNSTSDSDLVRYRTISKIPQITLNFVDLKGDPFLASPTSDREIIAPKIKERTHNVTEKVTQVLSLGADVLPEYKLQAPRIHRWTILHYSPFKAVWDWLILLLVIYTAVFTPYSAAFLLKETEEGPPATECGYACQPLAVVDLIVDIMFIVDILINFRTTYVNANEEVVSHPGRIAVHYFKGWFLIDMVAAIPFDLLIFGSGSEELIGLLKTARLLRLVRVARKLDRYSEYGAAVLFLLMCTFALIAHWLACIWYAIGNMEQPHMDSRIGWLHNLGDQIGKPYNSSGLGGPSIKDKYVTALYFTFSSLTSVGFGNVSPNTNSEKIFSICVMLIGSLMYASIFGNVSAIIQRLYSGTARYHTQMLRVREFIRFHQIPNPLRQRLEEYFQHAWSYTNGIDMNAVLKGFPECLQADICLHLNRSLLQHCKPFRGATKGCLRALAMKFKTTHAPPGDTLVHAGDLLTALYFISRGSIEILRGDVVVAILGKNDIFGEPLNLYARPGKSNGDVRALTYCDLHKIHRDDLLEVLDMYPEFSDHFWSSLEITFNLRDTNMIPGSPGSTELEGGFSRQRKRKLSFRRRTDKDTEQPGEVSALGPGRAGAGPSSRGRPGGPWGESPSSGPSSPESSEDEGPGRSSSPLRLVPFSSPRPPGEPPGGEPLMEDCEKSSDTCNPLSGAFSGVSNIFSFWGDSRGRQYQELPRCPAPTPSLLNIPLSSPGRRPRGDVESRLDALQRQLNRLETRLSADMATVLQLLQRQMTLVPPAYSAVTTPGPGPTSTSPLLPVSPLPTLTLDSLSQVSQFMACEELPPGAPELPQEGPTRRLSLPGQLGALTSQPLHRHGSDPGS
Experiment: Inhibition of hERG at 10 uM relative to control
Format: toxicity
Please reply with the bare figure in % and do not write the unit itself.

• O=C(NCc1ccc(OCC(O)CN2CCN(c3noc4cc(F)ccc34)CC2)cc1)N(Cc1c(F)cc(F)cc1F)C1CCNCC1 (centres undefined) = 83.6
• O=C(NCc1ccc(OCC(O)CN2CCN(c3noc4cc(F)ccc34)CC2)cc1)N(Cc1ccc(F)cc1F)C1CCNCC1 (centres undefined) = 87.7
• O=C(NCc1ccc(OCC(O)CN2CCN(c3noc4cc(F)ccc34)CC2)cc1)N(Cc1cc(F)c(F)cc1F)C1CCNCC1 (centres undefined) = 72.9

inhibition at 10 µM reading for Cl.Cl.O=C(NCc1ccc(OCC(O)CN2CCN(c3noc4cc(F)ccc34)CC2)cc1)N(Cc1ccc(F)cc1)C1CCNCC1 (centres undefined) : 52

The reported numbers originate from ChEMBL document CHEMBL6096690.
